Each recorded value in this set is attributed to PubChem BioAssay AID434936.

- tested on: Neuropeptide S receptor (Homo sapiens)
- procedure summary: Confirmation Concentration-Response Assay for Antagonists of the Neuropeptide S Receptor: Robust Characterization of cAMP Signal Transduction
- stated conditions: CHO-NPSR cells, NPS-stimulated cAMP TR-FRET; series mostly up to 50.7 µM
Records with an inconclusive call do not appear. The source made the active and inactive calls. The call rests on the fitted dose curve; in most records, active means well fitted curve in either direction with a large enough effect; inconclusive means small, poorly fitted or top-dose-only effect; inactive means flat fitted curve, though single readings scatter.
// classify into active, inactive

Study these solved cases before continuing.
molecule="COc1cccc(C2c3c(ncn(-c4ccc(-c5ccccc5)cc4)c3=N)Oc3ccc4ccccc4c32)c1 (stereo not drawn)" group_label=inactive
molecule="COc1cccc(C2c3c(ncn(-c4ccccn4)c3=N)Oc3ccc4ccccc4c32)c1 (stereo not drawn)" group_label=active
molecule="COc1ccc(C2c3c(ncn(CCCc4ccccc4)c3=N)Oc3ccc4ccccc4c32)cc1OC (stereo not drawn)" group_label=active

Inquiry: So what was the verdict on "S=P(c1ccccc1)(c1ccccc1)c1nc(CCCc2ccccc2)n2ccccc12" in this test?
Reply text: inactive

Inquiry: Further, for COc1cccc(C2c3c(ncn(-c4ccccc4)c3=N)Oc3ccc4ccccc4c32)c1OC (stereo not drawn) ?
Reply text: active

Inquiry: Further, for COc1cccc(C2c3c(ncn(-c4cccc(OC)c4)c3=N)Oc3ccc4ccccc4c32)c1 (stereo not drawn) ?
Reply text: active

Inquiry: Further, for N#CC1=C(NC=NCc2ccccc2)Oc2ccc3ccccc3c2C1c1ccccc1 (stereo not drawn) ?
Reply text: active

Inquiry: Further, for COc1cccc(C2c3c(ncn(Cc4cccs4)c3=N)Oc3ccc4ccccc4c32)c1 (stereo not drawn) ?
Reply text: active
